- Assayed System: Integrin alpha-IIb/beta-3 (Homo sapiens, UniProt P05106+P08514)
- Sequence (P05106 27-788 limits assumed): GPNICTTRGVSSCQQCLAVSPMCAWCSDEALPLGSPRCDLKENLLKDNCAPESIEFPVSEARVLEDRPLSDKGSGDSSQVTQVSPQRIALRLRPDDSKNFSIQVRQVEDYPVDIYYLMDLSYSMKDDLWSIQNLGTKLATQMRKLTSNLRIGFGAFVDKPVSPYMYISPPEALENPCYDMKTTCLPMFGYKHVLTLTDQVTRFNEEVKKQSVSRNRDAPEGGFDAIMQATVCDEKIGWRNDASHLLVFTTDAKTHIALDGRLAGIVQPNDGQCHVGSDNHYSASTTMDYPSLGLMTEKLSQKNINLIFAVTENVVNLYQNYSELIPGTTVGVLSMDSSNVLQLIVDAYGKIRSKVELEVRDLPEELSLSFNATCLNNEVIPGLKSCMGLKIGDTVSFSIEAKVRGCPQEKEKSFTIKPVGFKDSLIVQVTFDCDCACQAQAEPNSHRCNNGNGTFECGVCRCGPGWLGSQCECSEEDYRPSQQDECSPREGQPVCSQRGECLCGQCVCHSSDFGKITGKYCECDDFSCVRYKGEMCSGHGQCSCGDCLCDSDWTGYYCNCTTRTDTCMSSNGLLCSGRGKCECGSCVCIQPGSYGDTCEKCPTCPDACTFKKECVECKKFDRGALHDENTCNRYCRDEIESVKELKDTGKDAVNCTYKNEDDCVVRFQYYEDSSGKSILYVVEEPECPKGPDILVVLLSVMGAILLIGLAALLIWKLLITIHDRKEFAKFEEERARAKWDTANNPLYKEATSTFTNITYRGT
- Sequence (P08514 32-887 limits assumed): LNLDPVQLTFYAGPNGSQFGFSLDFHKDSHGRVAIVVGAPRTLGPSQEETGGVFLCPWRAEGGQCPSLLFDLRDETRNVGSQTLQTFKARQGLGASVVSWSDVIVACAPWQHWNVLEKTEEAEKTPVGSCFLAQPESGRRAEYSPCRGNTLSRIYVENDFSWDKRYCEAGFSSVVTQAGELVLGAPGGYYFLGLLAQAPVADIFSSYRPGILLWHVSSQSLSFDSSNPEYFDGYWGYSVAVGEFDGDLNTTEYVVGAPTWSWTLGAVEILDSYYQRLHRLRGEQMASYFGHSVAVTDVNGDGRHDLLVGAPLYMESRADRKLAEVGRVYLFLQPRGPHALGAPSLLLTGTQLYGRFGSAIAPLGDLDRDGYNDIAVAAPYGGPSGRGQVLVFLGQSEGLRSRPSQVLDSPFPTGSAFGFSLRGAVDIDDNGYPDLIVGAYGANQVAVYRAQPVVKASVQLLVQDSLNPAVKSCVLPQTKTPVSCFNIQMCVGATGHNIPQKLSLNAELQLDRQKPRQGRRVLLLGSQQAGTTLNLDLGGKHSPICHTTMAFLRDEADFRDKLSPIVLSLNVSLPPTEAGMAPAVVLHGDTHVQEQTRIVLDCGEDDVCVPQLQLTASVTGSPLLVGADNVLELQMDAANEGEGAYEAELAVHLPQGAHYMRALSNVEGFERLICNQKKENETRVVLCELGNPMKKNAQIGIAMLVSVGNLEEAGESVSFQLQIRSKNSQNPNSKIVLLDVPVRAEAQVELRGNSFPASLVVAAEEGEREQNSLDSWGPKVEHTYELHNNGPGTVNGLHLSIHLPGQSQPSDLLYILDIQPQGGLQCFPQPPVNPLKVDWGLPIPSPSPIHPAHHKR
- Sequence (P08514 891-1039 limits assumed): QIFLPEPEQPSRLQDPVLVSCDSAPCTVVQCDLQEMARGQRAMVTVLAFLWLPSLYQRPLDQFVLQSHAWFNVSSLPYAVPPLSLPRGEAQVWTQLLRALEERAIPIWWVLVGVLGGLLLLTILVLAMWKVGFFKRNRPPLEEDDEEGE
- Assay Notes: Binding affinity to integrin […] expressed in jurkat J6 cells
pKi: −log10 of the molar value.
Value Type: pKi

What value of measured pKi is listed for Cc1ccccc1NC(=O)Nc1ccc(-c2cccn(Cc3ccc(CCC(=O)O)cc3)c2=O)cc1 ?
< 5.00

---

- Assayed System: Integrin alpha-5/beta-1 (Homo sapiens, UniProt P05556+P08648)
- Sequence (P05556 21-798 limits assumed): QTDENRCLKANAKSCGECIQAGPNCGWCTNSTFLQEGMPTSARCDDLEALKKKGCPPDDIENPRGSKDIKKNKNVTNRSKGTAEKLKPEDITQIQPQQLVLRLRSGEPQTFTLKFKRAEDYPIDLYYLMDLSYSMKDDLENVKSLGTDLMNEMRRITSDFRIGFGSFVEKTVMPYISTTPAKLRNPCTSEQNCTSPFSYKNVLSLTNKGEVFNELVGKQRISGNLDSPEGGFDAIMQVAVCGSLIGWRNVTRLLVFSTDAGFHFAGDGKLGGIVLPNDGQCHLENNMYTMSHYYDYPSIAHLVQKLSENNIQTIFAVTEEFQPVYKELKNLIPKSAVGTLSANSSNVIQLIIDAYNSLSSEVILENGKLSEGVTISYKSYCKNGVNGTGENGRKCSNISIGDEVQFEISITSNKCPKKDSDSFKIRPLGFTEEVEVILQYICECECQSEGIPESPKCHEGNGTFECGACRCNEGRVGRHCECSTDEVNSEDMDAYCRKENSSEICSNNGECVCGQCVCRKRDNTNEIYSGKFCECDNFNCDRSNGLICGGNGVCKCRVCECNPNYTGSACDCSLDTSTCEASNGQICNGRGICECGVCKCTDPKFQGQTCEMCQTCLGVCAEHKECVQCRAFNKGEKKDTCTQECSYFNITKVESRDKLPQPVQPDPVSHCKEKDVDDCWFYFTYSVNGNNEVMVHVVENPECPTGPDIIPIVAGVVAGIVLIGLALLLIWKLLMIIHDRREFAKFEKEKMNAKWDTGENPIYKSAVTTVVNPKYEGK
- Sequence (P08648 42-894 partner limits assumed): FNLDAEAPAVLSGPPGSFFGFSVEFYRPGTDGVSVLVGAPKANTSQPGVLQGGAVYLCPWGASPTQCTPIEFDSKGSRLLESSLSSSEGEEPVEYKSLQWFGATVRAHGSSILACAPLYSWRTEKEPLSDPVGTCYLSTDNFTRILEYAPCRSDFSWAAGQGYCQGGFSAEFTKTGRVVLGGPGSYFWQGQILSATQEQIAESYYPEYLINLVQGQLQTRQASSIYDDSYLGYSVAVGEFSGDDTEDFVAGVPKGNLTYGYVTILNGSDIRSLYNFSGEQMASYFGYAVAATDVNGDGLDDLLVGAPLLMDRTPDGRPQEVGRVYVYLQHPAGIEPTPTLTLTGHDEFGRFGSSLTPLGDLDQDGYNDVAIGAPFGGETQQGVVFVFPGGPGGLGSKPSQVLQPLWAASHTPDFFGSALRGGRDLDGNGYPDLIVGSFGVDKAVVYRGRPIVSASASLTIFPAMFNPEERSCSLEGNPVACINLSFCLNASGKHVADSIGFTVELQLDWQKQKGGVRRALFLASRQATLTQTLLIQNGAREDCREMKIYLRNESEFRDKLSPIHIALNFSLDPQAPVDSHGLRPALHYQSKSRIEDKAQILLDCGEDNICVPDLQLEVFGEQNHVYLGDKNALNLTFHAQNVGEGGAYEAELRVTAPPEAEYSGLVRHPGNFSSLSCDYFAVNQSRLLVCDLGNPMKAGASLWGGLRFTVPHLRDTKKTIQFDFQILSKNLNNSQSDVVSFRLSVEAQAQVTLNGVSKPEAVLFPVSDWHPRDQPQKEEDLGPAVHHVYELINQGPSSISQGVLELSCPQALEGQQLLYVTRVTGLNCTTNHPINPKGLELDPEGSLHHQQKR
- Sequence (P08648 895-1049 partner limits assumed): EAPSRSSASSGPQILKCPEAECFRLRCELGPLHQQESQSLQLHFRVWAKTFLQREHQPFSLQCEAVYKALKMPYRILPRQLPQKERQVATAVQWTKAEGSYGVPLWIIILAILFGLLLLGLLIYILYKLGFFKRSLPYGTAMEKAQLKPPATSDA
- Assay Notes: Binding affinity to integrin alpha-5-beta-1 expressed in jurkat J6 cells
Value Type: Ki

Ki lookup needed for Cc1ccccc1NC(=O)Nc1ccc(-c2cccn(Cc3ccc(CCC(=O)O)cc3)c2=O)cc1 , thanks.
> 10 µM

---

- Assayed System: Integrin alpha-4/beta-7 (Homo sapiens, UniProt P13612+P26010)
- Sequence (P13612 whole entry): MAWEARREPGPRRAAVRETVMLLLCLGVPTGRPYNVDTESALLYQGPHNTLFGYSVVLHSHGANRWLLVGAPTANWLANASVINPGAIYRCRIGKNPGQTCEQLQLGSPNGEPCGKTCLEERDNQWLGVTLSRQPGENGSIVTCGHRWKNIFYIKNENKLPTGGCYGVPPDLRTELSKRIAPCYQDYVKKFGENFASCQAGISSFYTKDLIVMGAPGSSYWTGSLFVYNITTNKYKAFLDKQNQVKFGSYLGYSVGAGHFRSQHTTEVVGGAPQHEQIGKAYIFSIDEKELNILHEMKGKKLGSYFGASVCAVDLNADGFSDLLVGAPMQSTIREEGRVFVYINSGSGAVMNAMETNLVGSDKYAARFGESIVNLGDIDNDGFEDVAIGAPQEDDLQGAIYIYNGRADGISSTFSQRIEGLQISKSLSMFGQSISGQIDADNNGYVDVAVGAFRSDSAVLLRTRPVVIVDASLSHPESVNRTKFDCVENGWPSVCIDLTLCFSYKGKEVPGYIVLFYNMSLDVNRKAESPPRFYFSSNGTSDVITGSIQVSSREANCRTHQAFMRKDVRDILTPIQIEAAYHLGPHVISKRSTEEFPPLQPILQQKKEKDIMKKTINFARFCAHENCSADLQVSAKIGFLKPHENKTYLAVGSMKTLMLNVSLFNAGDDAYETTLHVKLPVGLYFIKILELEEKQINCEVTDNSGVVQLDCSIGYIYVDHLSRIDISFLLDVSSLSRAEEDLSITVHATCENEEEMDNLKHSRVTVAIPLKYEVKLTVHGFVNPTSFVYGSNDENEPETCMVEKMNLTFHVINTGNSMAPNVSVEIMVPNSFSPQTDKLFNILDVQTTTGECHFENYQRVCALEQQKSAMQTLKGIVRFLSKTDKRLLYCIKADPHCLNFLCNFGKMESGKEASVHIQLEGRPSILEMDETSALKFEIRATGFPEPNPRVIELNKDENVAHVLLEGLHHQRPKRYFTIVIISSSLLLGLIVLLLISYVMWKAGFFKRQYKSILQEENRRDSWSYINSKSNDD
- Sequence (P26010 whole entry): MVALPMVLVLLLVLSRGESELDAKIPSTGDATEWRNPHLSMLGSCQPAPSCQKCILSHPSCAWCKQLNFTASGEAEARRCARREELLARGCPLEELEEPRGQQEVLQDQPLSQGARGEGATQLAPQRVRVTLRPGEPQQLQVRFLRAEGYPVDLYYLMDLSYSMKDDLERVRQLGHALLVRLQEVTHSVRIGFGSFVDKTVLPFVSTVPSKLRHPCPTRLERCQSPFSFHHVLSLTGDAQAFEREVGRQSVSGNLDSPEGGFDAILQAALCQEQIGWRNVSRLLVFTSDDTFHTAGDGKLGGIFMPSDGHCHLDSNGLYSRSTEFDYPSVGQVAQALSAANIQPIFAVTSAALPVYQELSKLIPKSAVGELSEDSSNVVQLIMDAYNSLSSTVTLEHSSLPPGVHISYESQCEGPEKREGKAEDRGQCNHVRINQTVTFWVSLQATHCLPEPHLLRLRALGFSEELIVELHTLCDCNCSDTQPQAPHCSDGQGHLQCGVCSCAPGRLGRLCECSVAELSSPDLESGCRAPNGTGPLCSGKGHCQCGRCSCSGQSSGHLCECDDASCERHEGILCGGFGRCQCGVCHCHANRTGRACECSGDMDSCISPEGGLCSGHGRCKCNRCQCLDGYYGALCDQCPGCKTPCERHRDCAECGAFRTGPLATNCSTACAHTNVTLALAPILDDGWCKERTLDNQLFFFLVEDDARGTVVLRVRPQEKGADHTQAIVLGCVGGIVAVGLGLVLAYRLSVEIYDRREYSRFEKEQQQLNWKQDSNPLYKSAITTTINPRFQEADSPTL
- Assay Notes: Binding affinity to integrin alpha-4-beta-7 expressed in jurkat J6 cells
pKi: −log10 of the molar value.
Value Type: pKi

Look up pKi for this molecule: Cc1ccccc1NC(=O)Nc1ccc(-c2cccn(Cc3ccc(CCC(=O)O)cc3)c2=O)cc1
< 5.00

---

- Assayed System: Integrin alpha-V/beta-6 (Homo sapiens, UniProt P06756+P18564)
- Assay Notes: Binding affinity to integrin alpha-v-beta-6 expressed in jurkat J6 cells
- Assay type: cell-based
Value Type: Ki

Recorded Ki of Cc1ccccc1NC(=O)Nc1ccc(-c2cccn(Cc3ccc(CCC(=O)O)cc3)c2=O)cc1 , please.
> 10 µM

---

- Assayed System: Integrin alpha-4/beta-1 (Homo sapiens, UniProt P05556+P13612)
- Sequence (P05556 whole entry, one chain of several): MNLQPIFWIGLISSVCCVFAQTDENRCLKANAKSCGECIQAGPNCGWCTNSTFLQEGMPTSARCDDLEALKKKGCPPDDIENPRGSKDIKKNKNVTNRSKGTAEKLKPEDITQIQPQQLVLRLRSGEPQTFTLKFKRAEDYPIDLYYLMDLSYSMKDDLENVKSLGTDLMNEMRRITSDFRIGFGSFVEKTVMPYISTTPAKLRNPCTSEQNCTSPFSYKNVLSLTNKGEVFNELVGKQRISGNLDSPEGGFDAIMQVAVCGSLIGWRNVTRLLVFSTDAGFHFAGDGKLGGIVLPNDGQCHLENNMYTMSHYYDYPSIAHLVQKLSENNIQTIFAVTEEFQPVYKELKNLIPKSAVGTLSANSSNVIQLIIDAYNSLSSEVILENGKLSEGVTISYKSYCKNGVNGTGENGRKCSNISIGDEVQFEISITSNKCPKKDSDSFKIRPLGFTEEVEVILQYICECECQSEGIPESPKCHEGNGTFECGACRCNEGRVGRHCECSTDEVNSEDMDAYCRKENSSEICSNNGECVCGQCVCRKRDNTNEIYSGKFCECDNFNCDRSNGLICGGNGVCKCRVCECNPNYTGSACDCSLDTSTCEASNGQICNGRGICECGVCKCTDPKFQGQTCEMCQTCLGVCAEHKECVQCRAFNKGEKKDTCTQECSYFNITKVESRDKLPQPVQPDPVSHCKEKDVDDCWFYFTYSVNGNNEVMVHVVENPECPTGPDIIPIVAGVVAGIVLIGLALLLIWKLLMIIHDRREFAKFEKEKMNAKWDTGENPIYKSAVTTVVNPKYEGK
- Assay Notes: Binding affinity to integrin alpha-4-beta-1 expressed in jurkat J6 cells
Value Type: pKi
Would you please state pKi, meaning minus log10 of the concentration in mol/L, as a bare number?

pKi of Cc1ccccc1NC(=O)Nc1ccc(-c2ncn(Cc3ccc(CCC(=O)O)cc3)n2)cc1 on Integrin alpha-4/beta-1 (Homo sapiens, UniProt P05556+P13612)?
6.30

Param readout= pKi; system= Integrin alpha-4/beta-1 (Homo sapiens, UniProt P05556+P13612); entry= Cc1ccccc1NC(=O)Nc1ccc(-c2cccn(Cc3ccc(C(=O)O)cc3)c2=O)cc1 ; returns value.
6.50

Test system Integrin alpha-4/beta-1 (Homo sapiens, UniProt P05556+P13612); read-out pKi; what value for Cc1ccccc1NC(=O)Nc1ccc(-c2cccn(Cc3ccc(CC(=O)O)cc3)c2=O)cc1 ?
6.60

Return pKi measured with Integrin alpha-4/beta-1 (Homo sapiens, UniProt P05556+P13612) given this compound: Cc1ccccc1NC(=O)Nc1ccc(-c2cccn(Cc3ccccc3CCC(=O)O)c2=O)cc1
6.40

Request body: readout pKi, system Integrin alpha-4/beta-1 (Homo sapiens, UniProt P05556+P13612), query COc1cc(-c2ccn(Cc3ccc(CCC(=O)O)cc3)n2)ccc1NC(=O)Nc1ccccc1C . Return the value.
7.60

State its pKi on Integrin alpha-4/beta-1 (Homo sapiens, UniProt P05556+P13612): COc1cc(-c2cccn(Cc3ccc(CCC(=O)O)cc3)c2=O)ccc1NC(=O)Nc1ccccc1C
9.30

Please state recorded pKi (tested on Integrin alpha-4/beta-1 (Homo sapiens, UniProt P05556+P13612)) of Cc1ccccc1NC(=O)Nc1ccc(-c2cccn(Cc3ccc(CCC(=O)O)cc3)c2=O)cc1
8.70

For the record Cc1ccccc1NC(=O)Nc1ccc(-c2cccn(Cc3cccc(CCC(=O)O)c3)c2=O)cc1 , what value of pKi is listed for Integrin alpha-4/beta-1 (Homo sapiens, UniProt P05556+P13612)?
8.40

Item Cc1ccccc1NC(=O)Nc1ccc(-c2ccn(Cc3ccc(CCC(=O)O)cc3)n2)cc1 with Integrin alpha-4/beta-1 (Homo sapiens, UniProt P05556+P13612) - pKi?
6.60

Query for Integrin alpha-4/beta-1 (Homo sapiens, UniProt P05556+P13612): what pKi does the record show for COc1cc(CC(=O)Nc2ccc([C@H](C)CC(=O)O)cc2)ccc1NC(=O)Nc1ccccc1C ?
9.10

Lookup: pKi / Integrin alpha-4/beta-1 (Homo sapiens, UniProt P05556+P13612) / Cc1ccccc1NC(=O)Nc1ccc(CC(=O)Nc2ccc([C@H](C)CC(=O)O)cc2)cc1
7.20

---

Provide the reported pKi of each item.
- Assayed System: Integrin alpha-4/beta-1 (Homo sapiens, UniProt P05556+P13612)
- Assay Notes: Binding affinity to integrin alpha-4-beta-1 expressed in jurkat J6 cells
pKi: −log10 of the molar value.

Param item = Cc1ccccc1NC(=O)Nc1ccc(-c2cccn(-c3ccc(CCC(=O)O)cc3)c2=O)cc1 ; retrieve measured pKi.
< 6.00

pKi for COc1cc(-c2nnc(Cc3ccc(CCC(=O)O)cc3)o2)ccc1NC(=O)Nc1ccccc1C ?
< 6.00

So what's the measured pKi for this one? Cc1ccccc1NC(=O)Nc1ccc(-c2cn(Cc3ccc(CCC(=O)O)cc3)cn2)cc1
< 4.00

// query pKi value for entry Cc1ccccc1NC(=O)Nc1ccc(-c2cnn(Cc3ccc(CCC(=O)O)cc3)c2)cc1
< 6.00
